assay overview: Assessment of solubility (McIlvaine buffers, 24 h shake, UPLC-UV)
Format: physicochemical
particulars: pH 4.5, aqueous buffer, kinetic from dmso stock
Parameter: solubility at 24 h. Scope: all listed entries.

# compound, solubility at 24 h
data = [
    ("COc1c(C(=O)O)cnn1-c1cccc(-c2cccc(C)c2OCc2ccc3c(c2)CCN(C2CCOC2)C3)n1 (centres unmarked)", "88 µg/mL"),
    ("CCOc1c(C(=O)O)cnn1-c1cccc(-c2cccc(C)c2OCc2ccc3c(c2C(F)(F)F)CCN(C2CCOCC2)C3)n1", "58 µg/mL"),
    ("CCc1cc(COc2c(C)cccc2-c2cccc(-n3ncc(C(=O)O)c3OC)n2)cc2c1CN(C1CCOCC1)CC2", "75 µg/mL"),
    ("CCOc1c(C(=O)O)cnn1-c1cccc(-c2cccc(C)c2OCc2ccc3c(c2)CCNC3)n1", "96 µg/mL"),
    ("COc1c(C(=O)O)cnn1-c1cccc(-c2cccc(C)c2OCc2ccc3c(c2)CCN(CC2CC2)C3)n1", "76 µg/mL"),
    ("COc1c(C(=O)O)cnn1-c1cccc(-c2cccc(C(F)(F)F)c2OCc2ccc3c(c2)CCN(C2COC2)C3)n1", "70 µg/mL"),
    ("CCOc1c(C(=O)O)cnn1-c1cccc(-c2cccc(C)c2OCc2ccc3c(c2)CCN(C2CC(C)(C)OC(C)(C)C2)C3)n1", "76 µg/mL"),
    ("CCOc1c(C(=O)O)cnn1-c1cccc(-c2cccc(C)c2OCc2ccc3c(c2)CCN([C@@H]2CCOC2)C3)n1", "78 µg/mL"),
    ("CCOc1c(C(=O)O)cnn1-c1cccc(-c2cccc(C)c2OCc2ccc3c(c2C)CCN(C[C@H]2COCCO2)C3)n1", "96 µg/mL"),
    ("CCOc1c(C(=O)O)cnn1-c1cccc(-c2cccc(C)c2OCc2ccc3c(c2C)CCN(C[C@@H]2CCCOC2)C3)n1", "74 µg/mL"),
    ("CCOc1c(C(=O)O)cnn1-c1cccc(-c2cccc(C)c2OCc2ccc3c(c2)CCN(C2COC2)CC3)n1", "66 µg/mL"),
    ("COc1c(C(=O)O)cnn1-c1cccc(-c2cccc(C)c2OCc2ccc3c(c2)CN(CC2COCCO2)C3)n1 (centres unmarked)", "75 µg/mL"),
    ("COc1c(C(=O)O)cnn1-c1cccc(-c2cccc(C)c2OCc2ccc3c(c2F)CCN(C2COC2)C3)n1", "58 µg/mL"),
    ("CCOc1c(C(=O)O)cnn1-c1cccc(-c2cccc(C)c2OCc2ccc3c(c2C)CCN(C2COC2)C3)n1", "72 µg/mL"),
]

---

Catalogue of solubility at 24 h values
assay overview: Assessment of solubility (McIlvaine buffers, 24 h shake, UPLC-UV)
Assay type: physicochemical
particulars: pH 4.5, aqueous buffer, kinetic from dmso stock

# molecule, unit symbol, solubility at 24 h
data = [
    ("CCOc1c(C(=O)O)cnn1-c1cccc(-c2cccc(C)c2OCc2ccc3c(c2)CCN(CC2CCOC2)C3)n1 (centres unmarked)", "µg/mL", 71),
    ("COc1c(C(=O)O)cnn1-c1cccc(-c2cccc(C)c2OCc2ccc3c(c2C)CCN(C2COC2)C3)n1", "µg/mL", 71),
    ("COc1c(C(=O)O)cnn1-c1cccc(-c2cccc(C)c2OCc2ccc3c(c2)CCN(C2CC(C)OC(C)C2)C3)n1 (centres unmarked)", "µg/mL", 88),
    ("COc1c(C(=O)O)cnn1-c1cccc(-c2cccc(C)c2OCc2ccc3c(c2)CCN(CC2COCCO2)C3)n1 (centres unmarked)", "µg/mL", 93),
    ("CCOc1c(C(=O)O)cnn1-c1cccc(-c2cccc(C)c2OCc2ccc3c(c2C)CCN(C[C@H]2COCCO2)CC3)n1", "µg/mL", 79),
    ("CCOc1c(C(=O)O)cnn1-c1cccc(-c2cccc(Cl)c2OCc2ccc3c(c2)CCN(C2CCOC2)C3)n1 (centres unmarked)", "µg/mL", 48),
    ("COc1c(C(=O)O)cnn1-c1cccc(-c2cc(F)cc(F)c2OCc2ccc3c(c2)CCN(C2COC2)C3)n1", "µg/mL", 58),
    ("COc1c(C(=O)O)cnn1-c1cccc(-c2cccc(C)c2OCc2ccc3c(c2C)CCN(C[C@H]2COCCO2)C3)n1", "µg/mL", 87),
]

---

assay overview: Assessment of solubility (McIlvaine buffers, 24 h shake, UPLC-UV)
Assay type: physicochemical
particulars: pH 6.8, aqueous buffer, kinetic from dmso stock
Each item that follows carries a reported solubility at 24 h.
reported property: solubility at 24 h

# compound, test result
data = [
    ("CCOc1c(C(=O)O)cnn1-c1cccc(-c2cccc(C)c2OCc2ccc3c(c2C)CCN(C[C@@H]2CCCCO2)CC3)n1", "76 µg/mL"),
    ("CCOc1c(C(=O)O)cnn1-c1cccc(-c2cccc(C)c2OCc2ccc3c(c2C)CCN(C[C@@H]2CCOC2)C3)n1", "75 µg/mL"),
    ("CCOc1c(C(=O)O)cnn1-c1cccc(-c2cccc(C)c2OCc2cc(C)c3c(c2)CCN(C2CCOCC2)C3)n1", "97 µg/mL"),
    ("COc1c(C(=O)O)cnn1-c1cccc(-c2cccc(C)c2OCc2ccc3c(c2)CCN(C(C)C)C3)n1", "87 µg/mL"),
    ("CC[C@H](C)Oc1c(C(=O)O)cnn1-c1cccc(-c2cccc(C)c2OCc2ccc3c(c2C)CCN(C2CCOCC2)C3)n1", "110 µg/mL"),
    ("CCOc1c(C(=O)O)cnn1-c1cccc(-c2cccc(C)c2OCc2ccc3c(c2)CCNC3)n1", "100 µg/mL"),
    ("COc1c(C(=O)O)cnn1-c1cccc(-c2cccc(C)c2OCc2ccc3c(c2)C(C)(C)CN(CC2COCCO2)C3)n1 (stereo not shown)", "74 µg/mL"),
]

---

assay overview: Assessment of solubility (McIlvaine buffers, 24 h shake, UPLC-UV)
Format: physicochemical
particulars: pH 2.2, aqueous buffer, kinetic from dmso stock

# molecule, solubility at 24 h / µg/mL
data = [
    ("COc1c(C(=O)O)cnn1-c1cccc(-c2cccc(C)c2OCc2ccc3c(c2)CCN(C2CCOC2)C3)n1 (stereo not drawn)", 110),
    ("COc1c(C(=O)O)cnn1-c1cccc(-c2cccc(C)c2OCc2ccc3c(c2)CCN(C2CCOCC2OC)C3)n1 (stereo not drawn)", 100),
    ("CCOc1c(C(=O)O)cnn1-c1cccc(-c2cccc(C)c2OCc2ccc3c(c2C)CCN(C[C@@H]2CCCCO2)CC3)n1", 86),
    ("CCOc1c(C(=O)O)cnn1-c1cccc(-c2cccc(C)c2OCc2ccc3c(c2)CCN(CC2(C)COC2)C3)n1", 82),
    ("CCOc1c(C(=O)O)cnn1-c1cccc(-c2cccc(C)c2OCc2ccc3c(c2C)CCN(CC2COCCO2)C3)n1 (stereo in doubt)", 100),
    ("COc1c(C(=O)O)cnn1-c1cccc(-c2cccc(C)c2OCc2ccc3c(c2)CCN(CCS(C)(=O)=O)C3)n1", 110),
    ("CCOc1c(C(=O)O)cnn1-c1cccc(-c2cccc(C)c2OCc2ccc3c(c2C)CCN(C[C@H]2CCOC2)C3)n1", 100),
    ("CCOc1c(C(=O)O)cnn1-c1cccc(-c2cccc(C)c2OCc2ccc3c(c2)CCN(C2CCCOC2)C3)n1 (stereo not drawn)", 91),
    ("CCc1cc(COc2c(C)cccc2-c2cccc(-n3ncc(C(=O)O)c3OC)n2)cc2c1CN(C1CCOCC1)CC2", 94),
    ("CCOc1c(C(=O)O)cnn1-c1cccc(-c2cccc(C)c2OCc2ccc3c(c2OC)CCN(C2COC2)C3)n1", 100),
    ("CCOc1c(C(=O)O)cnn1-c1cccc(-c2cccc(C)c2OCc2ccc3c(c2)CCN(C(C)CS(C)(=O)=O)C3)n1 (stereo not drawn)", 86),
    ("CCOc1c(C(=O)O)cnn1-c1cccc(-c2cccc(C)c2OCc2cc(C)c3c(c2)CCN(C2COC2)C3)n1", 99),
    ("CCOc1c(C(=O)O)cnn1-c1cccc(-c2cccc(C)c2OCc2ccc3c(c2)CCN(C2CCOCC2F)C3)n1 (stereo not drawn)", 91),
    ("COc1c(C(=O)O)cnn1-c1cccc(-c2cccc(C)c2OCc2ccc3c(c2Cl)CCN(C2CCOCC2)C3)n1", 110),
    ("CCOc1c(C(=O)O)cnn1-c1cccc(-c2cccc(C)c2OCc2ccc3c(c2C)CCN(C[C@H]2CCCOC2)C3)n1", 87),
    ("CCOc1c(C(=O)O)cnn1-c1cccc(-c2cccc(C)c2OCc2ccc3c(c2C)CN(C2CCOCC2)C3)n1", 110),
    ("CCOc1c(C(=O)O)cnn1-c1cccc(-c2cccc(C)c2OCc2cc(C)c3c(c2)CN(C2CCOCC2)C3)n1", 110),
    ("COc1c(C(=O)O)cnn1-c1cccc(-c2cccc(C)c2OCc2ccc3c(c2C)CCN(C2CCOCC2)C3=O)n1", 2.1),
    ("Cc1cccc(-c2cccc(-n3ncc(C(=O)O)c3OC(C)C)n2)c1OCc1ccc2c(c1)CCN(C(C)C)C2", 92),
    ("COc1c(C(=O)O)cnn1-c1cccc(-c2cccc(C)c2OCc2ccc3c(c2C)CCN(CC2(C)COC2)C3)n1", 110),
    ("CCOc1c(C(=O)O)cnn1-c1cccc(-c2cccc(C)c2OCc2ccc3c(c2F)CCN(C2CCOCC2)C3)n1", 86),
]
